Biological target: T1, COP1^Tyr441Ala WD40 domain (Arabidopsis, UniProt P43254 349-675, Tyr441Ala)
T1 sequence: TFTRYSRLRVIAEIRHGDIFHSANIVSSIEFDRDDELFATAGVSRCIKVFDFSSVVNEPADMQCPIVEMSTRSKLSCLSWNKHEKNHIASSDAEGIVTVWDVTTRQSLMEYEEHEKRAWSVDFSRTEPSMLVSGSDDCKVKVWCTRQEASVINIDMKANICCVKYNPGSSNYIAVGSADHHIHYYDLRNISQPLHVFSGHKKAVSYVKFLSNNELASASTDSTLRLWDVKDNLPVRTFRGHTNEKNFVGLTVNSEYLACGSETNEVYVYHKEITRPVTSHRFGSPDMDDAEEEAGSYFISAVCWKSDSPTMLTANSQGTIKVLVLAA
Assay: ITC
READOUT_TYPE: pKd
# pKd = -log10(concentration in molar units)

## Input Item under review: EIRRVPEFGG [HY5^39–48 VP peptide] . Reported pKd?
## Output 3.64
